All values here come from patent US9493426B2.

ASSAY TARGET: UniProtKB P22607
Sequence (P22607 23-806): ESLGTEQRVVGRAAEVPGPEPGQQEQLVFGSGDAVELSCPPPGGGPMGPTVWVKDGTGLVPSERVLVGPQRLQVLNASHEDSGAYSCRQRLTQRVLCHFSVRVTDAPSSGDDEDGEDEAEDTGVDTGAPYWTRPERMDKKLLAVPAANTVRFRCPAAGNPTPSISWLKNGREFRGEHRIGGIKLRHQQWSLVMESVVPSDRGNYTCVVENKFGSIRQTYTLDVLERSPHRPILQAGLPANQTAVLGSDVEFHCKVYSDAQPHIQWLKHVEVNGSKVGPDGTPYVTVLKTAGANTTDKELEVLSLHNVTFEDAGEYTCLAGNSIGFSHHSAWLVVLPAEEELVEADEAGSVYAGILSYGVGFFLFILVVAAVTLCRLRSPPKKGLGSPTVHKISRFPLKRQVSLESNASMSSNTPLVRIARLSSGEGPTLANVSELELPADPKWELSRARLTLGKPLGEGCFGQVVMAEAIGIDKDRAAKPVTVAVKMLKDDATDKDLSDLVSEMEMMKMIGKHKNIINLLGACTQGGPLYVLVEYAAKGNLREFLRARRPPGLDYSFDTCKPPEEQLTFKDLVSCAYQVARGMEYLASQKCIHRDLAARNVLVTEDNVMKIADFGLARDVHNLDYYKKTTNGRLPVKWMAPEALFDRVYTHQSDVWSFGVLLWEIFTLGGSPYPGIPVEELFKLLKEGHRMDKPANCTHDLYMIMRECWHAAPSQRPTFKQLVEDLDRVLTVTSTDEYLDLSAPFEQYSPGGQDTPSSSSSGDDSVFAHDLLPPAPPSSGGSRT
ASSAY OVERVIEW: FGFR3 (enzymatic assay), TR-FRET
Type: biochemical
CONDITION NOTES: 25 μM ATP; pIC50 = -log IC50 (M); read-out: FGFR3 pIC50 (converted)
MEASURED ATTRIBUTE: log10(IC50) (log10 of the value in M)
In our notation, the value equals log10 of IC50 in M.

# return recorded log10(IC50) for entry COc1cc(OC)c(Cl)c(N(Cc2ncc[nH]2)c2ccc3ncn(-c4cnn(C)c4)c(=O)c3c2)c1Cl -7.90

# return recorded log10(IC50) for entry COc1cc(OC)c(Cl)c(N(CCO)c2ccc3ncn(-c4cnn(C)c4)c(=O)c3c2)c1Cl -8.10

# return recorded log10(IC50) for entry COc1cc(OC)c(F)c(N(CCO)c2ccc3ncn(-c4ccccc4)c(=O)c3c2)c1F -8.20

# return recorded log10(IC50) for entry COc1cc(OC)c(F)c(N(Cc2ncc[nH]2)c2ccc3ncn(-c4cnn(C)c4)c(=O)c3c2)c1 -8.60

# return recorded log10(IC50) for entry COc1cc(OC)cc(N(CCNC(C)C)c2ccc3ncn(-c4cnn(C)c4)c(=O)c3c2)c1 -8.00

# return recorded log10(IC50) for entry COc1cc(OC)cc(C(=O)c2ccc3ncn(-c4cnn(C)c4)c(=O)c3c2)c1 -6.10

# return recorded log10(IC50) for entry COc1cc(OC)c(F)c(N(CCNC(C)C)c2ccc3ncn(-c4cnn(C)c4)c(=O)c3c2)c1F -7.80

# return recorded log10(IC50) for entry COc1cc(OC)cc(N(CCO)c2ccc3ncn(-c4ccccc4)c(=O)c3c2)c1 -6.50

* * *

ASSAY TARGET: Ba/F3-FGFR4-transfected cells (Homo sapiens, UniProt P22455, cells depend on it, form not given)
Sequence (P22455 whole entry, looked up, change not shown): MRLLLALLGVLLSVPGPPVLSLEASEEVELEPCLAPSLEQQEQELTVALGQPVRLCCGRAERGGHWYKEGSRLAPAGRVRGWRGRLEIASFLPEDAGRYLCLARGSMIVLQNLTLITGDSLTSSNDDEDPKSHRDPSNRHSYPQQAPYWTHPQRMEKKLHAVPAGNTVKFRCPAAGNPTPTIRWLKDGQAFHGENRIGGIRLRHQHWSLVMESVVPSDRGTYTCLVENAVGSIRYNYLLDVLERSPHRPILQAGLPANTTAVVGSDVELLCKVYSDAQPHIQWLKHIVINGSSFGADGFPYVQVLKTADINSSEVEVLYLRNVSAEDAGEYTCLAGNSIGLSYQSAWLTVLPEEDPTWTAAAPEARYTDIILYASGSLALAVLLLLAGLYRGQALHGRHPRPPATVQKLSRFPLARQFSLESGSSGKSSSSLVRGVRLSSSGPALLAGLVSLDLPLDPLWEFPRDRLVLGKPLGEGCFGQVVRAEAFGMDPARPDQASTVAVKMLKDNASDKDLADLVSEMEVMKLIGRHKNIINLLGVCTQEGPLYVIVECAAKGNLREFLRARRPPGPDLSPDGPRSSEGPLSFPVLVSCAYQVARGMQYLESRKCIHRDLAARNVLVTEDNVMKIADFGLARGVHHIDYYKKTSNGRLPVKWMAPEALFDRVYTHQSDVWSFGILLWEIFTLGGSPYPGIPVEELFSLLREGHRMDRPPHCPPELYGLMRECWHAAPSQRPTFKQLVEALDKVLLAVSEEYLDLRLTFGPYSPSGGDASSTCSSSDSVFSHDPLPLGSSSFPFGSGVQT
ASSAY OVERVIEW: Ba/F3-FGFR4 cellular proliferation assay
Format: cell-based
CONDITION NOTES: 24 hours, Alamar Blue
MEASURED ATTRIBUTE: BAF3-FGFR4 (pIC50)
Output: the number by itself.

# return recorded BAF3-FGFR4 (pIC50) for entry COc1cc(OC)c(Cl)c(N(CCNC(C)C)c2ccc3ncn(-c4cnn(C)c4)c(=O)c3c2)c1Cl 6.3

# return recorded BAF3-FGFR4 (pIC50) for entry COc1cc(OC)c(F)c(N(CCO)c2ccc3ncn(-c4cnn(C)c4)c(=O)c3c2)c1 5.7

* * *

ASSAY TARGET: VEGFR2 (Homo sapiens)
Construct: purchased DiscoveRx Corporation
Sequence (P35968 20-1356): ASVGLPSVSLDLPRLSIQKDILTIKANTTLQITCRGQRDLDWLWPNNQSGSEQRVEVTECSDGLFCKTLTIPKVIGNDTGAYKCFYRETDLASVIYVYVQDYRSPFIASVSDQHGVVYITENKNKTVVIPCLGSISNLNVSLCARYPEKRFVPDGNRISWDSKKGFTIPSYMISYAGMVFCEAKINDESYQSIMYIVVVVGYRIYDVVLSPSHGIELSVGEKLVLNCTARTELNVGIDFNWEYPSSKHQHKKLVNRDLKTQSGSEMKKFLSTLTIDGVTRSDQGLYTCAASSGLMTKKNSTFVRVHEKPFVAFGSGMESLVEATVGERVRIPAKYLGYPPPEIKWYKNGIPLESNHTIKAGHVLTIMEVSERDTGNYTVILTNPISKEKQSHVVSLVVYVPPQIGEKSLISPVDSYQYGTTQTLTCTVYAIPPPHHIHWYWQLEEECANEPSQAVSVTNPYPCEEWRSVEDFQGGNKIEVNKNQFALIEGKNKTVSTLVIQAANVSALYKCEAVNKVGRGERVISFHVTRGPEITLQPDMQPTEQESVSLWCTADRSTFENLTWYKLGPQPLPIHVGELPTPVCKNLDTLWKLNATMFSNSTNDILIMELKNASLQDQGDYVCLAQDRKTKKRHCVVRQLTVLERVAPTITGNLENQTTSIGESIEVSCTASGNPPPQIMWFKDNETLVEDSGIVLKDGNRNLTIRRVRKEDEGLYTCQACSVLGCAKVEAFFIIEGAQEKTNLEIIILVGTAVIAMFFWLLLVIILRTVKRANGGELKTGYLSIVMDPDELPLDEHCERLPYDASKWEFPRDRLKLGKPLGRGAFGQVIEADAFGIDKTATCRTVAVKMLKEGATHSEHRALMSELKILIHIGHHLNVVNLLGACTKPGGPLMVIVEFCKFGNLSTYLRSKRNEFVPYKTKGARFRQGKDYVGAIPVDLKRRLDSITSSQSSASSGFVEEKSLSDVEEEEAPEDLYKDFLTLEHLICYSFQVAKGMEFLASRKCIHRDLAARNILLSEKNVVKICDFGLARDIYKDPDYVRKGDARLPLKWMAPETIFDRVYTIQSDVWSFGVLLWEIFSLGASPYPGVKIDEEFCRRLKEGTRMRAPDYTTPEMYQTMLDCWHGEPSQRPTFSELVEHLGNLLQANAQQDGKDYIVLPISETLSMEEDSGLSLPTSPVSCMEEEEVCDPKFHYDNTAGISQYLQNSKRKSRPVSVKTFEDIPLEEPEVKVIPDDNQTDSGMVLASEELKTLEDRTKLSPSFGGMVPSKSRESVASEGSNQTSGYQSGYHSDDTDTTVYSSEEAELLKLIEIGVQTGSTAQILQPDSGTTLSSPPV
ASSAY OVERVIEW: Enzyme binding assay (KINOMEscan) VEGFR2
CONDITION NOTES: pKd = -log Kd (M), read-out: VEGFR2_pKd (converted)
MEASURED ATTRIBUTE: Kd

# return recorded Kd for entry COc1cc(OC)c(F)c(N(CCNC(C)C)c2ccc3ncn(-c4cnn(C)c4)c(=O)c3c2)c1F [Compound 19] 1.58e-08 M

# return recorded Kd for entry COc1cc(OC)c(F)c(N(CCNC(C)C)c2ccc3ncn(-c4cccnc4)c(=O)c3c2)c1 [Compound 33] 1.58e-06 M

# return recorded Kd for entry COc1cc(OC)c(F)c(N(Cc2ncc[nH]2)c2ccc3ncn(C4CCNCC4)c(=O)c3c2)c1 [Compound 45] > 3.16e-06 M

# return recorded Kd for entry CNCCN(c1cc(OC)cc(OC)c1)c1ccc2ncn(C3CCOCC3)c(=O)c2c1 [Compound 71] > 3.16e-06 M

# return recorded Kd for entry COc1cc(OC)c(F)c(N(Cc2nccn2S(=O)(=O)N(C)C)c2ccc3ncn(-c4ccncc4)c(=O)c3c2)c1 [Compound 41] > 3.16e-06 M

# return recorded Kd for entry COc1cc(OC)c(F)c(N(Cc2ncc[nH]2)c2ccc3ncn(C4CCNCC4)c(=O)c3c2)c1F [Compound 43] > 3.16e-06 M

# return recorded Kd for entry COc1cc(OC)c(F)c(N(CCO)c2ccc3ncn(C4CCOCC4)c(=O)c3c2)c1 [Compound 63] > 3.16e-06 M

# return recorded Kd for entry COc1cc(OC)cc(N(Cc2ncc[nH]2)c2ccc3ncn(C4CCOCC4)c(=O)c3c2)c1 [Compound 69] > 3.16e-06 M

# return recorded Kd for entry CNCCN(c1ccc2ncn(C3CCOCC3)c(=O)c2c1)c1cc(OC)cc(OC)c1F [Compound 70] > 3.16e-06 M

# return recorded Kd for entry COc1cc(OC)cc(N(CCO)c2ccc3ncn(C4CCNCC4)c(=O)c3c2)c1 [Compound 47] > 3.16e-06 M

# return recorded Kd for entry COc1cc(OC)cc(N(CCCO)c2ccc3ncn(C4CCOCC4)c(=O)c3c2)c1 [Compound 66] > 3.16e-06 M

# return recorded Kd for entry COc1cc(OC)c(F)c(N(CCCNC(C)C)c2ccc3ncn(C4CCNCC4)c(=O)c3c2)c1 [Compound 61′] > 3.16e-06 M

# return recorded Kd for entry COc1cc(OC)c(F)c(N(CCCO)c2ccc3ncn(C4CCNCC4)c(=O)c3c2)c1F [Compound 53] > 3.16e-06 M

# return recorded Kd for entry CNCCN(c1ccc2ncn(C3CCNCC3)c(=O)c2c1)c1cc(OC)cc(OC)c1F [Compound 58] > 3.16e-06 M

# return recorded Kd for entry COc1cc(OC)c(F)c(N(Cc2nccn2S(=O)(=O)N(C)C)c2ccc3ncn(-c4ccncc4)c(=O)c3c2)c1F [Compound 40] 1.58e-06 M

# return recorded Kd for entry COc1cc(OC)c(F)c(N(CCO)c2ccc3ncn(C4CCNCC4)c(=O)c3c2)c1 [Compound 48] > 3.16e-06 M
